- MEASUREMENT_TARGET: CYP2B6 (Homo sapiens, UniProt P20813)
- Sequence (P20813 whole entry): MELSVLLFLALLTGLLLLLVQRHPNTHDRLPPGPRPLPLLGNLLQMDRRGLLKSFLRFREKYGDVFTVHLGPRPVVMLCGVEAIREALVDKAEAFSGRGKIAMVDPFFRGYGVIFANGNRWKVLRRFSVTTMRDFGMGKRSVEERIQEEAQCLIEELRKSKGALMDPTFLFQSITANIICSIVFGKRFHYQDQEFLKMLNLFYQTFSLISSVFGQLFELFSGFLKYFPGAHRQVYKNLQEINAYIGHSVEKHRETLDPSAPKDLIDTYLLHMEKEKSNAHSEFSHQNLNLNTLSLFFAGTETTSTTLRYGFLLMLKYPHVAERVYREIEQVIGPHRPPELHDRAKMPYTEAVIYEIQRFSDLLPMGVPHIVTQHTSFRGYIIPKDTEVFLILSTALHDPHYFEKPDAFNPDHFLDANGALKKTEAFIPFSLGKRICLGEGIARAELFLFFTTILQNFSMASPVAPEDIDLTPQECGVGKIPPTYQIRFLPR
- EXPERIMENT: biochemical
ASSAY_METRIC: IC50 (µM)
// units = µM; emit number, no label

What value of measured IC50 is listed for OCCOc1ccc(/C(=C(/CCCl)c2ccccc2)c2ccccc2)cc1 [Ospemifene] ? 7.8

* * *

- MEASUREMENT_TARGET: CYP1A2 (Homo sapiens, UniProt P05177)
- Sequence (P05177 1-516): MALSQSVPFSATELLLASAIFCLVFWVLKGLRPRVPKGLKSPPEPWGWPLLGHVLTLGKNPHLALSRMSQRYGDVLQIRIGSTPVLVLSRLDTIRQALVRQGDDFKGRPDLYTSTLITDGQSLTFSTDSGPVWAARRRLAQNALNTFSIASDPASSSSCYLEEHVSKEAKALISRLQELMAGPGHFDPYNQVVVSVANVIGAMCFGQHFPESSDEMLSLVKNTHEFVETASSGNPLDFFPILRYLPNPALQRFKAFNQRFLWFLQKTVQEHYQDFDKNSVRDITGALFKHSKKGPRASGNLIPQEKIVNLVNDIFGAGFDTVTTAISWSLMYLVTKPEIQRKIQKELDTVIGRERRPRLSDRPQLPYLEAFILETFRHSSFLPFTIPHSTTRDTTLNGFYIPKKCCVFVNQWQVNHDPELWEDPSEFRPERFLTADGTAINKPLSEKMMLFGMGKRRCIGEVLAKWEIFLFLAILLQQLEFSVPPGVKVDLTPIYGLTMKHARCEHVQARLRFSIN
- EXPERIMENT: biochemical
- CONDITION: read-out: IC50, Melatonin 6-hydroxylation; human liver microsomes, probe 4 μM
ASSAY_METRIC: IC50

If you can, please state the reported IC50 value of OCCOc1ccc(/C(=C(/CCCl)c2ccccc2)c2ccc(O)cc2)cc1 [4-Hydroxy-ospemifene, 4-hydroxyospemifene] . > 100 µM
